- METHOD_NOTES: Confirmation screen for delayed death inhibitors of the malarial parasite plastid, 48 hour incubation; further: nearly all actives have a fitted effect of over 65% in size
- SETTINGS: P. falciparum-infected erythrocytes, luciferase growth; series mostly up to 28.7 µM
In all, about 2,300 compounds went through this assay and about 1,200 (52%) were called active. Not shown: some 34% with an inconclusive outcome. The call rests on the fitted dose curve; in most records, active means well fitted inhibition curve with a large enough effect; inconclusive means small, poorly fitted or top-dose-only effect, or effect the other way; inactive means no such curve, though single readings can be large or run the other way. The set was probably picked from earlier hits. The list shows a part of the results.
Choose one outcome from this list and give only that: active, inactive

# outcome recorded in this test, key = COc1cccc(/C=C2\SC(N3CCCC(C)C3)=NC2=O)c1OC (stereo unspecified) active

# outcome recorded in this test, key = `CCOC(=O)c1c(NC(=O)CSc2ccccc2C(=O)O)sc(C)c1C` inactive

# outcome recorded in this test, key = COCCN(C(=O)CCCC(=O)Nc1ccccn1)C(C(=O)NC1CCCCC1)c1ccc(C)cc1 (stereo unspecified) active

# outcome recorded in this test, key = `O=C(COc1ccccc1)N1c2ccccc2Sc2ccccc21` active

# outcome recorded in this test, key = COCCN1CCCC(CNCc2cn(C)nc2-c2ccc(Oc3ccccc3)cc2)C1 (stereo unspecified) active

# outcome recorded in this test, key = `CCCOc1ccccc1/C=C1\SC(N2CCCCC2)=NC1=O` active
